Entries and their drug-induced phospholipidosis values follow.
# Tested on: A549-ACE2
# assay_details: drug-induced phospholipidosis relative to tamoxifen; higher = more phospholipidosis
# run_conditions: 10 µM; 48 h
Provide the reading as a plain figure in %.

Query :: // query drug-induced phospholipidosis value for entry CCN(CC)CCOc1ccc2c(c1)C(=O)c1cc(OCCN(CC)CC)ccc1-2
Result :: -10

Query :: // query drug-induced phospholipidosis value for entry O=C(Nc1ccc(-c2ccncc2)cc1)N[C@H](CO)c1ccccc1
Result :: 1.09

Query :: // query drug-induced phospholipidosis value for entry Nc1nc(N)c(N=O)c(OCC2CCCCC2)n1
Result :: 1.26

Query :: // query drug-induced phospholipidosis value for entry COc1cccc(CCc2ccccc2OCC[C@@H]2C[C@@H](O)CN2C)c1
Result :: 98.6

Query :: // query drug-induced phospholipidosis value for entry CC[C@@H](C)CNCC(=O)N1CCc2sccc2[C@@H]1COc1cccc(C)c1
Result :: 100

Query :: // query drug-induced phospholipidosis value for entry COc1ccc2cc1Oc1ccc(cc1)C[C@H]1c3c(cc4c(c3Oc3cc5c(cc3OC)CCN(C)[C@@H]5C2)OCO4)CCN1C
Result :: 35.4

----------
Entries and their relative viability EC50 values follow.
# Test system: Calu-3
# assay_details: relative viability EC50 (midpoint between 100% and the lowest measured viability); higher = less toxic
# run_conditions: 72 h

Known results for molecules:
CSc1ccc2c(c1)N(CCC1CCCCN1C)c1ccccc1S2 (centres undefined) [thioridazine] ... 2.72 µM
C[C@@]1(O)[C@H](O)[C@@H](CO)O[C@H]1n1cnc2c(NC3CCCC3)nc(Cl)nc21 [2'-MeCCPA] ... > 10 µM
O=C1NCCN1c1ncc([N+](=O)[O-])s1 [niridazole] ... > 10 µM

Field: next molecule
Query :: // query relative viability EC50 value for entry CCCC[P+](CCCC)(CCCC)Cc1ccc(NC(=O)[C@H](Cc2ccc3ccccc3c2)N/C(=N/C2CCCCC2)NC2CCCCC2)cc1
Result :: > 10 µM

----------
Entries and their cell viability values follow.
# Tested on: Vero E6
# assay_details: cell viability relative to DMSO; higher = less toxic
# run_conditions: 72 h; 10 nM
Provide the reading as a plain figure in %.

Known results for compounds:
CO[C@@H]1[C@H](O)[C@@H](CO)O[C@H]1n1cnc2c(NC3CCCCC3)ncnc21 ... 94.7
C[C@H](N)[C@H](O)c1cccc(O)c1 ... 101
COc1ccc(CCCO[C@@H](Cn2ccnc2)c2ccc(OC)cc2)cc1 ... 104
Cc1cccc(C#Cc2ccccc2)n1 ... 94.9
Oc1ccc(-c2nc(-c3ccc(F)cc3)c(-c3ccncc3)[nH]2)cc1 ... 100
O=C(/C=C\n1cnc(-c2cc(C(F)(F)F)cc(C(F)(F)F)c2)n1)NNc1cnccn1 [selinexor] ... 102
C[C@@H]1COCCN1c1cc(C2([S@](C)(=N)=O)CC2)nc(-c2ccnc3[nH]ccc23)n1 ... 94.5
C[C@@H]1O[C@@H](OC[C@H]2O[C@@H](Oc3c(-c4ccc(O)c(O)c4)oc4cc(O)cc(O)c4c3=O)[C@H](O)[C@@H](O)[C@@H]2O)[C@H](O)[C@H](O)[C@H]1O ... 100
CCCCC(=O)OCC(=O)[C@]1(O)Cc2c(O)c3c(c(O)c2[C@@H](O[C@H]2C[C@H](NC(=O)C(F)(F)F)[C@H](O)[C@H](C)O2)C1)C(=O)c1c(OC)cccc1C3=O ... 102
Nc1ccc(C(=O)O)c(O)c1 [aminosalicylate] ... 98.5

Query :: // query cell viability value for entry CC(=O)OCC(=O)[C@@]1(O)CC[C@H]2[C@@H]3CCC4=CC(=O)CC[C@]4(C)[C@@]3(F)[C@@H](O)C[C@@]21C [FLUDROCORTISONE ACETATE]
Result :: 99.8

Query :: // query cell viability value for entry CC1(C)CN2C(CS/C(=N\C3CCCCC3)NC3CCCCC3)=CSC2=N1
Result :: 95.7

Query :: // query cell viability value for entry CC(C)(C)c1ccc(C(O)CCCN2CCC(C(O)(c3ccccc3)c3ccccc3)CC2)cc1 (configuration not stated)
Result :: 97.3

Query :: // query cell viability value for entry COc1ccc2c3c([nH]c2c1)[C@H](CC(C)C)N1C(=O)[C@H](CCC(=O)OC(C)(C)C)NC(=O)[C@@H]1C3
Result :: 96.7

Query :: // query cell viability value for entry COc1ccc2[nH]c([S+]([O-])Cc3ncc(C)c(OC)c3C)nc2c1 (configuration not stated)
Result :: 106

Query :: // query cell viability value for entry CCCC[P+](CCCC)(CCCC)Cc1ccc(NC(=O)[C@H](Cc2ccc3ccccc3c2)N/C(=N/C2CCCCC2)NC2CCCCC2)cc1
Result :: 97.7

Query :: // query cell viability value for entry CC[C@@H](C)CNCC(=O)N1CCc2sccc2[C@@H]1COc1cccc(C)c1
Result :: 92.9

Query :: // query cell viability value for entry CCOc1cc([C@@H](CS(C)(=O)=O)N2C(=O)c3cccc(NC(C)=O)c3C2=O)ccc1OC
Result :: 104
